- target-system: UP1 (RRM1-RRM2 fragment of hnRNP A1) (UniProt P09651 1-196)
- Sequence (P09651 1-196): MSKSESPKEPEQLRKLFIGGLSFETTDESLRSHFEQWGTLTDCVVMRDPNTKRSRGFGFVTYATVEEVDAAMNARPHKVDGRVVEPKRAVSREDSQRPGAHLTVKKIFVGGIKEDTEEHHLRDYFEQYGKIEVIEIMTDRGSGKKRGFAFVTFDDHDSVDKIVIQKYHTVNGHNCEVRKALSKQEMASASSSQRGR
- measurement-description: ITC
pKd: −log10 of the molar value.

{"columns": ["binder", "pKd"],
 "data": [
  ["GCACCACACGGGUUUUAGACAAAAUCCG (structured_RNA) [SMN2 exon 7 ESE1 hairpin]", 4.32],
  ["GCACCACACGGGUUUCAGACAAAAUCCG (structured_RNA) [SMN1 exon 7 ESE1 hairpin]", 4.29]
]}
